Assign pKd to each entry below.
Target chain: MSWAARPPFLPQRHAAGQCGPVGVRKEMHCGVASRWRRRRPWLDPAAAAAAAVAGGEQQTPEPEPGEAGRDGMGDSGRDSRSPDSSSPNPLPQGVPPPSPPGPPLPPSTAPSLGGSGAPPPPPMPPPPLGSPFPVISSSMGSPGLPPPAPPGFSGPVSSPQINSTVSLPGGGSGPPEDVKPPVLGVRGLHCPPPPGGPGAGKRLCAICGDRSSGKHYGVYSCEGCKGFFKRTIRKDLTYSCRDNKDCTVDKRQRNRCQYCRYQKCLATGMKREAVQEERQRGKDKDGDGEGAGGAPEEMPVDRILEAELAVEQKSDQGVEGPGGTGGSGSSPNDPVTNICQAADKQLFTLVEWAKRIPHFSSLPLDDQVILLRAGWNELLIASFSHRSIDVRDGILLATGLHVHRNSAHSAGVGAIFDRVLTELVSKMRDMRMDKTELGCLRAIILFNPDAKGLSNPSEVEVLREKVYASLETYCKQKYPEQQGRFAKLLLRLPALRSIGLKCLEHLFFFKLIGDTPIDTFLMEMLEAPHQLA
pKd: −log10 of the molar value.

Recorded pKd for `CC(C)(C)c1cc(C(=O)Nc2cc(F)c(C(=O)O)c(F)c2)cc(C(C)(C)C)c1` , please?
< 6.00

Record request: pKd value, item `CC(C)(C)c1cc(C(=O)Nc2ccc(C(=O)O)c([N+](=O)[O-])c2)cc(C(C)(C)C)n1`
< 6.00

Fill blank: measured pKd of the molecule `CC(C)(C)c1cc(C(=O)Nc2ccc(C(=O)O)c(F)c2)c(O)c(C(C)(C)C)c1` is ____.
< 6.00

Please report the recorded pKd for `CC(C)(C)c1cc(C(=O)Nc2ccc(C(=O)O)c(F)c2)cc(C(C)(C)C)n1` .
< 6.00
